target: ABHD6 (Mus musculus); construct: Brain; from tissue; host or cells: mouse brain proteome; experiment: In vitro competitive activity-based protein profiling, mouse brain proteome (ABHD6); assay type: biochemical; settings: mouse brain proteome; concentration not given (μM)
recorded.endpoint: % Inh ABHD6 Brain (Mouse, μM)

| compound | target.of.assay | % Inh ABHD6 Brain (Mouse, μM) |
| --- | --- | --- |
| CC(=O)N1CC2(CCN(c3ccccc3CN3CCCC34CN(C(=O)OC(C(F)(F)F)C(F)(F)F)C4)C2)C1 [Example 230] | ABHD6 (Mus musculus) | # (# is ≤25%) |
| CN(Cc1ccc(C(F)(F)F)cc1N1CCOCC1)C1(C)CCN(C(=O)OC(C(F)(F)F)C(F)(F)F)CC1 [Example 63] | ABHD6 (Mus musculus) | ### (### is ≥75%) |
| O=C(O)CN1CCC2(CCN(c3cc(C(F)(F)F)ccc3CN3CCCC34CCN(C(=O)OC(C(F)(F)F)C(F)(F)F)CC4)CC2)C1 [Example 153] | ABHD6 (Mus musculus) | # (# is ≤25%) |
| O=C(OC(C(F)(F)F)C(F)(F)F)N1CCC2(CC1)CN(Cc1cccc(F)c1)C2 [Example 97] | ABHD6 (Mus musculus) | ### (### is ≥75%) |
| O=C(O)CN1CCC2(CC1)CCN(c1cc(C(F)(F)F)ccc1CN1CCCC13CCN(C(=O)OC(C(F)(F)F)C(F)(F)F)CC3)C2 [Example 154] | ABHD6 (Mus musculus) | # (# is ≤25%) |

Kindly review the next compound as well.
Need % Inh ABHD6 Brain (Mouse, μM), item CC(=O)N1CC2(CCN(c3ccccc3CN3CCN(C(=O)OC(C(F)(F)F)C(F)(F)F)CC3)C2)C1 [Example 168]
# (# is ≤25%)

---

target: MGLL (Mus musculus); construct: Brain; from tissue; host or cells: mouse brain proteome; experiment: In vitro competitive activity-based protein profiling, mouse brain proteome (MGLL); type: biochemical; settings: concentration not given (μM)
Sequence (O35678 whole entry): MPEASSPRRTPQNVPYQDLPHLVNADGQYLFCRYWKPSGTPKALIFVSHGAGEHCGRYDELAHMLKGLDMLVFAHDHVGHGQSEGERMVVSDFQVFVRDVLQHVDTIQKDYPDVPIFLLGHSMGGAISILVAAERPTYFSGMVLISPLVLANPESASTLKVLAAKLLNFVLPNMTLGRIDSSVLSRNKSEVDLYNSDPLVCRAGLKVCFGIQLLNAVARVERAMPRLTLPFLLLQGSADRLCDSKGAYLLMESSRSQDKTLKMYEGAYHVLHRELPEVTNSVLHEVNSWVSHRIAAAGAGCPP
recorded.endpoint: % Inh MGLL Brain (Mouse, μM)

Some solved entries appear below for comparison.
| molecule | % Inh MGLL Brain (Mouse, μM) |
| --- | --- |
| O=C(OC(C(F)(F)F)C(F)(F)F)N1CCC2(CCCN2Cc2ccc(C(F)(F)F)cc2C2(C(=O)O)CCCC2)CC1 | ### (### is ≥75%) |
| O=C(O)C1CCN(Cc2cc(Cl)cc(C(=O)N3CCCC34CCN(C(=O)OC(C(F)(F)F)C(F)(F)F)CC4)c2)CC1 | ### (### is ≥75%) |
| O=C(OC(C(F)(F)F)C(F)(F)F)N1CCC2(CC1)CN(Cc1cccc(N3CCOCC3)c1)C2 | ### (### is ≥75%) |
| N#Cc1ccc(C(=O)N2CCC3(CCN(C(=O)OC(C(F)(F)F)C(F)(F)F)CC3)C2)cc1C(F)(F)F | ### (### is ≥75%) |
| CC1(C(=O)O)CN(c2cc(C(F)(F)F)ccc2CN2CC3(CCN(C(=O)OC(C(F)(F)F)C(F)(F)F)CC3)C2)CCO1 (centres unmarked) | ### (### is ≥75%) |

If you can, please state the reported % Inh MGLL Brain (Mouse, μM) value of O=C(OC(C(F)(F)F)C(F)(F)F)N1CCC2(CC1)CN(Cc1c(Cl)cccc1N1CCN(C3CC3)CC1)C2 .
### (### is ≥75%)

// % Inh MGLL Brain (Mouse, μM) lookup, key: O=C(OC(C(F)(F)F)C(F)(F)F)N1CCC2(CC1)CN(Cc1ccccc1C(F)(F)F)C2
### (### is ≥75%)

---

molecular target: ABHD6 (Mus musculus, UniProt Q8R2Y0); construct: Brain; from tissue; host or cells: mouse brain proteome; test: In vitro competitive activity-based protein profiling, mouse brain proteome (ABHD6); format: biochemical; conditions: mouse brain proteome; concentration not given (μM)
Sequence (Q8R2Y0 whole entry): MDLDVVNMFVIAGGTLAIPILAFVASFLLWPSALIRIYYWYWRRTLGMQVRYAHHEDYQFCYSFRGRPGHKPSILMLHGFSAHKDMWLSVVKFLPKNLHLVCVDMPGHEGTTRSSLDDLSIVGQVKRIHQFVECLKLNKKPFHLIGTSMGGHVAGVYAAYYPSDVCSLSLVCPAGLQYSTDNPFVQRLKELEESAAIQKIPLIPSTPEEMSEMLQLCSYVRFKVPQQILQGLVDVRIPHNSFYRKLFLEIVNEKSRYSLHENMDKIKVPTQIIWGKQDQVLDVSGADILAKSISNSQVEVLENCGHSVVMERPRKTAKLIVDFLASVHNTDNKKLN
recorded.endpoint: % Inh ABHD6 Brain (Mouse, μM)

Please review the following examples before continuing.
| compound | % Inh ABHD6 Brain (Mouse, μM) |
| --- | --- |
| O=C(OC(C(F)(F)F)C(F)(F)F)N1CC2(CCN(Cc3ccc(C(F)(F)F)cc3)CC2)C1 | ### (### is ≥75%) |
| O=C(OC(C(F)(F)F)C(F)(F)F)N1CCC2(CC1)CN(Cc1ccccc1N1CCOCC1)C2 | ### (### is ≥75%) |
| CN(Cc1ccc(C(F)(F)F)cc1CN1CCC(C(=O)O)CC1)C1(C)CCN(C(=O)OC(C(F)(F)F)C(F)(F)F)CC1 | # (# is ≤25%) |
| O=C(OC(C(F)(F)F)C(F)(F)F)N1CCC2(CC1)CN(Cc1c(N3CCN(C4CC4)CC3)cccc1C(F)(F)F)C2 | ### (### is ≥75%) |
| O=C(OC(C(F)(F)F)C(F)(F)F)N1CC2(CCN(Cc3ccc(N4CCOCC4)cc3)CC2)C1 | ### (### is ≥75%) |

Endpoint output: % Inh ABHD6 Brain (Mouse, μM) of O=C(OC(C(F)(F)F)C(F)(F)F)N1CCC2(CC1)CN(Cc1c(N3CCC4(CCOCC4)C3)cccc1C(F)(F)F)C2 . Value?
### (### is ≥75%)

Which % Inh ABHD6 Brain (Mouse, μM) is listed for CC(C)(C#Cc1cc(CN2CCCC23CCN(C(=O)OC(C(F)(F)F)C(F)(F)F)CC3)cc(C(F)(F)F)c1)C(=O)O ?
### (### is ≥75%)

Look at this compound and give its reported % Inh ABHD6 Brain (Mouse, μM). CC(=O)N1CCC2(CC1)CN(c1cc(C(F)(F)F)ccc1CN1CCN(C(=O)OC(C(F)(F)F)C(F)(F)F)CC1)C2
# (# is ≤25%)

Given the entry CCN1CC2(CCN(c3cc(C(F)(F)F)ccc3CN3CCN(C(=O)OC(C(F)(F)F)C(F)(F)F)CC3)C2)C1 , report its measured % Inh ABHD6 Brain (Mouse, μM).
# (# is ≤25%)

Please report the recorded % Inh ABHD6 Brain (Mouse, μM) for O=C(OC(C(F)(F)F)C(F)(F)F)N1CC2(CCN(Cc3ccc(C(F)(F)F)cc3N3CCOCC3)CC2)C1 .
### (### is ≥75%)

Could you share which % Inh ABHD6 Brain (Mouse, μM) value was measured for CC1(C(=O)O)CCN(c2cc(CN3CC4(CCN(C(=O)OC(C(F)(F)F)C(F)(F)F)CC4)C3)cc(C(F)(F)F)c2)C1 (stereo not shown) ?
### (### is ≥75%)

---

target: ABHD6 (Mus musculus, UniProt Q8R2Y0); construct: Brain; from tissue; host or cells: mouse brain proteome; assay: In vitro competitive activity-based protein profiling, mouse brain proteome (ABHD6); assay type: biochemical; details: mouse brain proteome; concentration not given (μM)
recorded.endpoint: % Inh ABHD6 Brain (Mouse, μM)

| molecule | % Inh ABHD6 Brain (Mouse, μM) |
| --- | --- |
| O=C(OC(C(F)(F)F)C(F)(F)F)N1CCC2(CC1)CN(Cc1ccccc1N1CCCC1)C2 | ### (### is ≥75%) |
| CN(Cc1ccccc1C1(C(=O)O)CCCC1)C1(C)CCN(C(=O)OC(C(F)(F)F)C(F)(F)F)CC1 | # (# is ≤25%) |
| CN(Cc1ccc(C(F)(F)F)cc1N1CCC[C@H]1C(=O)O)C1(C)CCN(C(=O)OC(C(F)(F)F)C(F)(F)F)CC1 | # (# is ≤25%) |
| O=C(OC(C(F)(F)F)C(F)(F)F)N1CCC2(CC1)CN(Cc1ccc(C(F)(F)F)cc1)C2 | ### (### is ≥75%) |

Consider the molecule CN1CC2(CCN(c3cc(C(F)(F)F)ccc3CN3CCN(C(=O)OC(C(F)(F)F)C(F)(F)F)CC3)C2)C1 and give its measured % Inh ABHD6 Brain (Mouse, μM).
# (# is ≤25%)

Entry CN(Cc1ccc(Cl)cc1N1CCC(C(=O)O)CC1)C1(C)CCN(C(=O)OC(C(F)(F)F)C(F)(F)F)CC1 has what % Inh ABHD6 Brain (Mouse, μM)?
### (### is ≥75%)

Reported % Inh ABHD6 Brain (Mouse, μM), molecule CS(=O)(=O)N1CCN(c2cccc(Cl)c2CN2CC3(CCN(C(=O)OC(C(F)(F)F)C(F)(F)F)CC3)C2)CC1 : ____
### (### is ≥75%)

Given CC(=O)N1CC2(CCN(c3cc(C(F)(F)F)ccc3CN3CCN(C(=O)OC(C(F)(F)F)C(F)(F)F)CC3)C2)C1 , state its recorded % Inh ABHD6 Brain (Mouse, μM).
# (# is ≤25%)

Value lookup for % Inh ABHD6 Brain (Mouse, μM); key = O=C(O)CN1CC2CC1CN2c1cc(CN2CC3(CCN(C(=O)OC(C(F)(F)F)C(F)(F)F)CC3)C2)cc(C(F)(F)F)c1 (stereo not shown)
### (### is ≥75%)
